Parameter MIC C. difficile, tested on C. difficile, listed per item.

compound structure: CC[C@H](C)[C@H](NC(=O)[C@H](N)Cc1ccc(Cl)cc1)C(=O)N[C@@H](CO)C(=O)N[C@H](CCC(N)=O)C(=O)N[C@@H](C(=O)N[C@H](C(=O)N[C@@H](CO)C(=O)N[C@H]1C(=O)N[C@@H](C)C(=O)N[C@@H](CCCCN)C(=O)N[C@@H]([C@@H](C)CC)C(=O)O[C@H]1C)[C@@H](C)CC)[C@@H](C)CC
MIC C. difficile: 0.06 to 0.12 µg/mL
--
compound structure: CC[C@H](C)[C@H](NC(=O)[C@@H](Cc1ccccc1)NC)C(=O)N[C@@H](CO)C(=O)N[C@H](CCC(N)=O)C(=O)N[C@@H](C(=O)N[C@H](C(=O)N[C@@H](CO)C(=O)N[C@H]1C(=O)N[C@@H](C)C(=O)N[C@@H](Cc2ccc(NC(=N)N)cc2)C(=O)N[C@@H]([C@@H](C)CC)C(=O)O[C@H]1C)[C@@H](C)CC)[C@@H](C)CC
MIC C. difficile: 0.25 to 0.5 µg/mL
--
compound structure: CC[C@H](C)[C@H](NC(=O)[C@@H](Cc1ccc(Cl)cc1)NC)C(=O)N[C@@H](CO)C(=O)N[C@H](CCC(N)=O)C(=O)N[C@@H](C(=O)N[C@H](C(=O)N[C@@H](CO)C(=O)N[C@H]1C(=O)N[C@@H](C)C(=O)N[C@@H](CCCCNC(=N)N)C(=O)N[C@@H]([C@@H](C)CC)C(=O)O[C@H]1C)[C@@H](C)CC)[C@@H](C)CC
MIC C. difficile: 0.015 to 0.03 µg/mL

Next molecule, please.
CC[C@H](C)[C@H](NC(=O)[C@@H](Cc1ccc(OC)cc1)NC)C(=O)N[C@@H](CO)C(=O)N[C@H](CCC(N)=O)C(=O)N[C@@H](C(=O)N[C@H](C(=O)N[C@@H](CO)C(=O)N[C@H]1C(=O)N[C@@H](C)C(=O)N[C@@H](CCCCNC(=N)N)C(=O)N[C@@H]([C@@H](C)CC)C(=O)O[C@H]1C)[C@@H](C)CC)[C@@H](C)CC has a reported MIC C. difficile of 0.06 to 0.12 µg/mL

Hey, just so you know, these numbers are from patent US20200216493A1.
